Where do the numbers come from? From paper PMC8588131.

test system: Macrotyloma uniflorum urease; test: in vitro urease inhibitory assay (modified Berthelot reaction, indophenol blue, absorbance at 630 nm); assay type: biochemical, Macrotyloma uniflorum (Horse gram); settings: at 30.00 μg/mL
Record true whenever Percentage inhibition (± SEM) is at 80% or higher; record false when lower.

smiles.string | assigned.category
Cn1cc(/C=N/O)c2ccccc21 | false
Cn1cc(/C=N\O)c2ccccc21 | false
O/N=C\c1c[nH]c2ccccc12 | false
O/N=C/c1cn(Cc2ccccc2)c2ccccc12 | true

---

tested on: Macrotyloma uniflorum urease; experiment: in vitro urease inhibitory assay (modified Berthelot reaction, indophenol blue, absorbance at 630 nm); assay type: biochemical, Macrotyloma uniflorum (Horse gram); conditions: at 10.00 μg/mL
measured.metric: Percentage inhibition (± SEM) (%)

molecule | result.value
Cn1cc(/C=N\O)c2ccccc21 | 28.15
O/N=C\c1cn(Cc2ccccc2)c2ccccc12 | 44.39
Cn1cc(/C=N/O)c2ccccc21 | 31.87
NC(N)=S [Thiourea, thiourea, reference compound] | 22.61
O/N=C\c1c[nH]c2ccccc12 | 24.56

---

smiles.string | melting point
O/N=C/c1cn(Cc2ccccc2)c2ccccc12 | 140 to 143 °C
Cn1cc(/C=N\O)c2ccccc21 | 112 to 115 °C
O/N=C\c1cn(Cc2ccccc2)c2ccccc12 | 132 to 134 °C
Cn1cc(/C=N/O)c2ccccc21 | 126 to 129 °C
